Target: LRRK2 G2019S (Homo sapiens, UniProt Q5S007, G2019S)
Sequence (Q5S007 whole entry G2019S): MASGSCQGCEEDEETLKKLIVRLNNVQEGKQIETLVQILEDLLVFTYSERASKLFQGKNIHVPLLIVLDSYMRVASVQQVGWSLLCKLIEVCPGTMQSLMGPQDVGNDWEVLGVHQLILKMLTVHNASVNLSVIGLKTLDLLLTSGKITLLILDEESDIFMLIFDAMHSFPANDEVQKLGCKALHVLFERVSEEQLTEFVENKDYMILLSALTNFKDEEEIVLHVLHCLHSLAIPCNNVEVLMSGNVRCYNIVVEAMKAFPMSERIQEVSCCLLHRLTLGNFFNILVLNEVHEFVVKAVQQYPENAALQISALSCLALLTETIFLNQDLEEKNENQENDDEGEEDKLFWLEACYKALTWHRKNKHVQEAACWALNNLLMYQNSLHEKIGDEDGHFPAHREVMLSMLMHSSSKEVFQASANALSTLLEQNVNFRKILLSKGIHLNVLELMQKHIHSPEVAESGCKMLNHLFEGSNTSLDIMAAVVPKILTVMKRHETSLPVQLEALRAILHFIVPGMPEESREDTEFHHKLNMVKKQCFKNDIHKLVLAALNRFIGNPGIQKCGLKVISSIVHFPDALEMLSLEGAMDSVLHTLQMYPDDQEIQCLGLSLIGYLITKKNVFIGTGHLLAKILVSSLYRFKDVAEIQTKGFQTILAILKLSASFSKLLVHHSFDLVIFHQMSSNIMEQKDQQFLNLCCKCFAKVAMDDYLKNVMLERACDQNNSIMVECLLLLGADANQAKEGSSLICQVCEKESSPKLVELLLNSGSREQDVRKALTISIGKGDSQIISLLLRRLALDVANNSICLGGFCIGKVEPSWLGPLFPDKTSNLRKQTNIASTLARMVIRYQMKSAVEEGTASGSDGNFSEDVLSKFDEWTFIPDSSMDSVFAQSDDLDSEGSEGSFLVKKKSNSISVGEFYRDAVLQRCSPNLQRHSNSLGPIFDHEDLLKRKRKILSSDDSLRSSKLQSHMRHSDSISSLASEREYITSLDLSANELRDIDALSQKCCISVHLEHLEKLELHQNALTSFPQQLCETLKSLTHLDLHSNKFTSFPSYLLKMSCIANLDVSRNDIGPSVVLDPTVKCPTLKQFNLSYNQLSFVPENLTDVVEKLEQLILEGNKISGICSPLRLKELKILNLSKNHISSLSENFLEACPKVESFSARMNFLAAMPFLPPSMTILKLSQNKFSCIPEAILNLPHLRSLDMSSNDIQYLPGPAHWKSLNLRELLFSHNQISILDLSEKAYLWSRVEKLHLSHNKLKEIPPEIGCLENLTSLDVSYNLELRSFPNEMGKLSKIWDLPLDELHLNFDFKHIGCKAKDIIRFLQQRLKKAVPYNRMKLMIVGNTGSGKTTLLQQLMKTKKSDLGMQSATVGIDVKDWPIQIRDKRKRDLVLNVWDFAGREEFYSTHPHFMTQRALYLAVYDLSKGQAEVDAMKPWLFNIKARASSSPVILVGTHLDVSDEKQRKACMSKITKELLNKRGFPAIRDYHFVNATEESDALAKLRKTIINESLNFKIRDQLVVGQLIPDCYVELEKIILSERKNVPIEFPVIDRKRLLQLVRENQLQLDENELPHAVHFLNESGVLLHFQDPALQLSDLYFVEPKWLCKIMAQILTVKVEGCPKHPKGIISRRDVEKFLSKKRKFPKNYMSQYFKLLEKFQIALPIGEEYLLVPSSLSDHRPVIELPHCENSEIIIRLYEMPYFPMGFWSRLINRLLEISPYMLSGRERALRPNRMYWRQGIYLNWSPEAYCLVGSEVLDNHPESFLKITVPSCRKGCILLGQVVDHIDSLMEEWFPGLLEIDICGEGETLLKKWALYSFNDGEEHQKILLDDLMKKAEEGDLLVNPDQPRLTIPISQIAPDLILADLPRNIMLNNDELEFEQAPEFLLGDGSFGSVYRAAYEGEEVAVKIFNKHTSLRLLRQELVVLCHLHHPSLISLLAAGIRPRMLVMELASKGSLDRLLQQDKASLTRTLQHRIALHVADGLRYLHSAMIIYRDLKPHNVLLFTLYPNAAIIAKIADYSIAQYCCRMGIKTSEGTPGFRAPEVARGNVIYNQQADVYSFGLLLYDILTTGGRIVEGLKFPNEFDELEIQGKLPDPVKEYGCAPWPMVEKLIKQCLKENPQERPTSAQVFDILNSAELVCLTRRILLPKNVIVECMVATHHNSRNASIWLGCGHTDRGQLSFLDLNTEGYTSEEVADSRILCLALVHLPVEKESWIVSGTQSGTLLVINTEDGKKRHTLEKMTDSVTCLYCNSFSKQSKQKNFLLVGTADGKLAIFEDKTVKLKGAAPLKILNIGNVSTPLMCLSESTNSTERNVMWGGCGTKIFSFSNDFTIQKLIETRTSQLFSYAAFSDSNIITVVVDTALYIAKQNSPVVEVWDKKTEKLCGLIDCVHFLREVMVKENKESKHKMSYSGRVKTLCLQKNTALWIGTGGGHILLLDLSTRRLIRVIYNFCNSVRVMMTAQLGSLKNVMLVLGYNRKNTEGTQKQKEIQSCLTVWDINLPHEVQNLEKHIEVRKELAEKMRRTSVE
Experiment: LRRK2 G2019S kinase activity inhibition, 33P-ATP P81 filter-binding (Reaction Biology)
Type: biochemical
Conditions: peptide substrate, 10 μM ATP, duplicates
Method: The six hit compounds from the virtual screening were ordered from Selleckchem (Houston, Texas, USA). […] Stocks of all compounds were shipped to Reaction Biology Corporation (Malvern, Pennsylvania, USA) and Eurofins DiscoverX (Fremont, California, USA) for IC50 and Kd determination, respectively. The IC50 and Kd assays were performed as service by the companies. Compounds were dissolved and diluted in 100% DMSO. […] Kinase activity was detected by the P81 filter-binding method. […]
# IC50 per record follows

These solved cases illustrate the format of a correct answer.
O=C1Nc2ccc(I)cc2/C1=C/c1cc(Br)c(O)c(Br)c1 < 0.0051 µM
Fc1ccc([C@@H]2CCNC[C@H]2COc2ccc3c(c2)OCO3)cc1 > 100 µM

### Prompt Fill in: IC50 of "O=C1Nc2ccc(Cl)cc2[C@@](C#CC2CC2)(C(F)(F)F)O1" is ___
### Response > 100 µM
